Source listed as patent US7842469B2.

# Method summary: Luciferase activity of purified RLuc mutants (light output integrated over 10 s, luminometer)
# Format: biochemical
# Condition notes: benzyl-coelenterazine; relative to native enzyme
Quantity: Activity (relative to RLuc) bc
One number for each entry.

## Input Which Activity (relative to RLuc) bc is listed for A54P/C124A: RLuc mutant A54P/C124A (protein) MASKVYDPEQRKRMITGPQWWARCKQMNVLDSFINYYDSEKHAENAVIFLHGNPASSYLWRHVVPHIEPVARCIIPDLIGMGKSGKSGNGSYRLLDHYKYLTAWFELLNLPKKIIFVGHDWGAALAFHYSYEHQDKIKAIVHAESVVDVIESWDEWPDIEEDIALIKSEEGEKMVLENNFFVETMLPSKIMRKLEPEEFAAYLEPFKEKGEVRRPTLSWPREIPLVKGGKPDVVQIVRNYNAYLRASDDLPKMFIESDPGFFSNAIVEGAKKFPNTEFVKVKGLHFSQEDAPDEMGKYIKSFVERVLKNEQ ?
## Output 0.04
